measurementTarget: T1, human MSLN-FL-his protein (human, UniProt Q13421 296-580)
T1 construct: also called human MSLN full-length protein; hMSLN-FL-his; not shown: His tag
T1 sequence (Q13421 other isoform, or with tags, fused parts or gaps): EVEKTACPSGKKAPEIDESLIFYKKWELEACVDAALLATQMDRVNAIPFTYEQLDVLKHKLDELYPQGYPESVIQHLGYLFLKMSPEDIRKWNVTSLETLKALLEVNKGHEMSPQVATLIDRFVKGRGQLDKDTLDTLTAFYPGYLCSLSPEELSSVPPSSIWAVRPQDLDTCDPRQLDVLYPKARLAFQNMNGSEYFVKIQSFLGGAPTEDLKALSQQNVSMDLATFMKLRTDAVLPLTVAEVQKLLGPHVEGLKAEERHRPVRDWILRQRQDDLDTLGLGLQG
measurementNotes: ELISA, coated MSLN full-length;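 also: binding of chimeric antibodies to plate-bound antigen, read by TMB colour after acid stop, antibody incubated 2 h at 37 °C, negative control antibody run alongside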
For each entry below, report its OD450 at 0.0001 nM value.
Answer with a number only, understood to be in OD450.

[in] Please look up its OD450 at 0.0001 nM: S009-F2.23.12 (antibody, human IgG1, kappa, V domains shown, Human-murine chimeric antibody, human IgG1/kappa constant regions) VH: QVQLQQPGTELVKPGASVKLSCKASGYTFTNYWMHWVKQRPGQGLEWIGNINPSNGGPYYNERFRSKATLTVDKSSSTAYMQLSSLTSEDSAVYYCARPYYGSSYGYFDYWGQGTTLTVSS VL: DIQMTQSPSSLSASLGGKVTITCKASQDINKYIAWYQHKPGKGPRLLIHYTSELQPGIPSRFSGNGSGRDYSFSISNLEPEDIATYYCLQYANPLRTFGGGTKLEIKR
[out] 0.05

[in] Entry under review: S009-F2-56.12 (antibody, human IgG1, kappa, V domains shown, Human-murine chimeric antibody, human IgG1/kappa constant regions) VH: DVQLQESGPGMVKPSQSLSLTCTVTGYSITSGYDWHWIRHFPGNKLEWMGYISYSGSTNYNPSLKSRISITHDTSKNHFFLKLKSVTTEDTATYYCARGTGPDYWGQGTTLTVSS VL: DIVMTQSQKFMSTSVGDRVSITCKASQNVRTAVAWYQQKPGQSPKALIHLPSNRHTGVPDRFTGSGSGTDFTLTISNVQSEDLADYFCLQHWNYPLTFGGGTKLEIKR . Reported OD450 at 0.0001 nM?
[out] 0.06

[in] For the binder shown here, S009-F2.58.8 (antibody, human IgG1, kappa, V domains shown, Human-murine chimeric antibody, human IgG1/kappa constant regions) VH: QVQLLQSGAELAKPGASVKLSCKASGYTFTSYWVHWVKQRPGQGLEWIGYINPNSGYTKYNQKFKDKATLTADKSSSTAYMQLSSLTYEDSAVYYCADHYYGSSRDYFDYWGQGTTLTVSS VL: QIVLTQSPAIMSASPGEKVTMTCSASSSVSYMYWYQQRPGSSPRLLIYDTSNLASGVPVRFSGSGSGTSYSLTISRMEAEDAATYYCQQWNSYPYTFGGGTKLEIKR , give the reported OD450 at 0.0001 nM.
[out] 0.05
